Assay: Toxicokinetic evaluation of 14-day repeated intragastric administration to SD rats
Type: in vivo
Settings: both sexes, SD, rat, plasma, po, 5 mg/kg, repeated intragastric 5 mg/kg, Day 14, read-out: Plasma concentration Cmax
Experimental: With SD rats as test animals, the plasma concentrations of the test compounds and the concentrations of the original forms of the compounds in the administration solutions were measured by LC/MS/MS at different time points after intragastric administration. The toxicokinetic performance of the compound disclosed herein was studied in SD rats and its toxicokinetic profile was evaluated. […]
recorded_endpoint: Cmax at 14 day (ng/mL)
Answers are plain numbers, in ng/mL.

Given the compound Cc1ccc(F)c([C@H](C)Nc2nc(=O)n(C3CCOCC3)c(=O)[nH]2)c1 [Example 16] , what is its reported Cmax at 14 day?
4860

###

assay: Toxicokinetic evaluation of 14-day repeated intragastric administration to SD rats; format: in vivo; conditions: both sexes, SD, rat, plasma, po, 3 mg/kg, repeated intragastric 3.0 mg/kg, Day 7, read-out: Residence time MRT
recorded_endpoint: MRT at 7 day (days)
Answers are plain numbers, in days.

Given the compound CC(C)n1c(=O)cc(N[C@@H](C)c2ccccc2)[nH]c1=O [MYK-461, reference compound] , what is its reported MRT at 7 day?
11.5

###

experiment: Pharmacokinetic evaluation in beagles; type: in vivo; conditions: both (Example 16), male (MYK-461), beagle, dog, plasma, po, intragastric administration, 2 mg/kg, read-out: Clearance CL/F
recorded_endpoint: CL/F (mL/min/kg)
Numbers only, in mL/min/kg.

// for each compound in input: emit CL/F
1. CC(C)n1c(=O)cc(N[C@@H](C)c2ccccc2)[nH]c1=O [MYK-461, reference compound]
2. Cc1ccc(F)c([C@H](C)Nc2nc(=O)n(C3CCOCC3)c(=O)[nH]2)c1

1: 1.48; 2: 9.26

###

Test: Toxicokinetic evaluation of 14-day repeated intragastric administration to SD rats
Type: in vivo
Details: both sexes, SD, rat, plasma, po, 5 mg/kg, repeated intragastric 5 mg/kg, Day 14, read-out: Apparent volume of distribution Vz/F
Method: With SD rats as test animals, the plasma concentrations of the test compounds and the concentrations of the original forms of the compounds in the administration solutions were measured by LC/MS/MS at different time points after intragastric administration. The toxicokinetic performance of the compound disclosed herein was studied in SD rats and its toxicokinetic profile was evaluated. […]
recorded_endpoint: Vd/F at 14 day
Respond with a number, then the unit of measure.

Given the compound Cc1ccc(F)c([C@H](C)Nc2nc(=O)n(C3CCOCC3)c(=O)[nH]2)c1 , what is its reported Vd/F at 14 day?
1.24 L/kg

###

assay: Pharmacokinetic evaluation in beagles; format: in vivo; conditions: both (Example 16), male (MYK-461), beagle, dog, plasma, intravenous injection, 0.5 mg/kg, read-out: Half-life T1/2 (converted)
recorded_endpoint: half-life
Respond with a number, then the unit of measure.

CC(C)n1c(=O)cc(N[C@@H](C)c2ccccc2)[nH]c1=O [MYK-461, reference compound] : 47.2 h

Next item in the queue.
Given the molecule Cc1ccc(F)c([C@H](C)Nc2nc(=O)n(C3CCOCC3)c(=O)[nH]2)c1 , what is its reported half-life?
5.6 h

###

assay: Toxicokinetic evaluation of 14-day repeated intragastric administration to SD rats; assay type: in vivo; details: both sexes, SD, rat, plasma, po, 0.5 mg/kg, repeated intragastric 0.5 mg/kg, Day 14, read-out: Plasma concentration Cmax
recorded_endpoint: Cmax at 14 day
Respond with a number, then the unit of measure.

Given the molecule CC(C)n1c(=O)cc(N[C@@H](C)c2ccccc2)[nH]c1=O [MYK-461, reference compound] , what is its reported Cmax at 14 day?
89.3 ng/mL
